Target: mutEGFR (D770_N771insNPG, T790)
Sequence (P00533 with tags, fused parts or gaps INS770NPG limits assumed): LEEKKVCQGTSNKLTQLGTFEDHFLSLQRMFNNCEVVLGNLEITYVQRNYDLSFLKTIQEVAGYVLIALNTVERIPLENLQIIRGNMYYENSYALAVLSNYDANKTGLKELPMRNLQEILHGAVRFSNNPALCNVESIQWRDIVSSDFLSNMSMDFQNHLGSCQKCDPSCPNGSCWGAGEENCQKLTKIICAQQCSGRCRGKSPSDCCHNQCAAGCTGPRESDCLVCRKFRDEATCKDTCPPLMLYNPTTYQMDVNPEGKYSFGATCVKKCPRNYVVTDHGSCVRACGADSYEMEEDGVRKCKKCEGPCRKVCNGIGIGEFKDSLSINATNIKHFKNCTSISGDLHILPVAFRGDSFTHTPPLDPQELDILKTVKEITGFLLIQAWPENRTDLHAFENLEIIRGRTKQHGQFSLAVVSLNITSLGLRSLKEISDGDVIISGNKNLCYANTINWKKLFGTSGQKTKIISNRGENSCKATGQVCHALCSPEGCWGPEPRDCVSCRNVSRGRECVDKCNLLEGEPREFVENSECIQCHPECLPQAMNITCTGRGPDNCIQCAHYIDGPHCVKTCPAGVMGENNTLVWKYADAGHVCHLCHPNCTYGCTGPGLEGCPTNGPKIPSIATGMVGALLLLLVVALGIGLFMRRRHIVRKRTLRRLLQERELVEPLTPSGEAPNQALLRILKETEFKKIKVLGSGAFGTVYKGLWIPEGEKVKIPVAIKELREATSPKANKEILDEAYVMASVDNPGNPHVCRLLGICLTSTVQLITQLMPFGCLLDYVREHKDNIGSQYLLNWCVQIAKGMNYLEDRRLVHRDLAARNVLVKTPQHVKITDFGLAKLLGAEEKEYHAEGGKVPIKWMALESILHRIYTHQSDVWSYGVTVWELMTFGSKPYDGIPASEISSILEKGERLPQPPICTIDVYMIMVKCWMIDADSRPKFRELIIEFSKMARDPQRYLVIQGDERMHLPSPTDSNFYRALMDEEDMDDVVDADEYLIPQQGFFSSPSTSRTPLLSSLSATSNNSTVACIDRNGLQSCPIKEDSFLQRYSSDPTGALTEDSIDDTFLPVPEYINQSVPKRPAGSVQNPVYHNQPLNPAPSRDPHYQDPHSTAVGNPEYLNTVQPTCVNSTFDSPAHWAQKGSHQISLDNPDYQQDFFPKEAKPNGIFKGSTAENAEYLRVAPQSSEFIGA
Assay: mutEGFR (D770_N771insNPG, T790) kinase assay
Can you tell me IC50 for the items I'm about to list?
Write the number in µM without appending the unit.

Input: Reported IC50 for O=C(/C=C/CN1CCCC1)N1CCC[C@H]1COc1cnccc1-c1[nH]c2cccnc2c1-c1ccccc1 [Example 99] : what is it?
Output: 0.0108

Input: Reported IC50 for C=CC(=O)N(C)CCOc1cnccc1-c1[nH]c2cccnc2c1-c1ccc(Cl)c(C(=O)OC)c1 [Example 13] : what is it?
Output: 1.39

Input: Reported IC50 for C=CC(=O)N(C)CCOc1cnccc1-c1[nH]c2cccnc2c1-c1cc(C)cc(F)c1 [Example 50] : what is it?
Output: 0.131

Input: Reported IC50 for C=CC(=O)N1CCC[C@H]1COc1cnccc1-c1[nH]c2cccnc2c1-c1ccccc1 [Example 34] : what is it?
Output: 0.00206

Input: Reported IC50 for C=CC(=O)N1CCC[C@@H]1COc1cnccc1-c1[nH]c2cccnc2c1-c1ccccc1 [Example 35] : what is it?
Output: 0.349

Input: Reported IC50 for C=CS(=O)(=O)N(C)CCOc1cnccc1-c1[nH]c2cccnc2c1-c1cc(C)ccc1F [Example 64] : what is it?
Output: 0.00221

Input: Reported IC50 for C=CS(=O)(=O)N(C)CCOc1cnccc1-c1[nH]c2cccnc2c1-c1cc(C(F)(F)F)ccc1F [Example 59] : what is it?
Output: 0.0016

Input: Reported IC50 for CN(C)C/C=C/C(=O)N(C)CCOc1cnccc1-c1[nH]c2cccnc2c1-c1ccccc1 [Example 26] : what is it?
Output: 0.333

Input: Reported IC50 for C#Cc1cccc(-c2c(-c3ccncc3OC[C@@H]3CCCN3C(=O)C=C)[nH]c3cccnc23)c1 [Example 102] : what is it?
Output: 0.00129

Input: Reported IC50 for C=CS(=O)(=O)N1C[C@@H](C)C[C@H]1COc1cnccc1-c1[nH]c2cccnc2c1-c1ccccc1 [Example 111] : what is it?
Output: 0.00033

Input: Reported IC50 for C=CC(=O)N1CC(F)(F)C[C@H]1COc1cnccc1-c1[nH]c2cccnc2c1-c1ccccc1 [Example 112] : what is it?
Output: 0.000979

Input: Reported IC50 for CN(C)C/C=C/C(=O)N1CCOCC1COc1cnccc1-c1[nH]c2cccnc2c1-c1cc(Cl)ccc1F (stereo not shown) [Example 152] : what is it?
Output: 0.353

Input: Reported IC50 for C=CC(=O)N1CCC(Oc2cnccc2-c2[nH]c3cccnc3c2-c2ccccc2)C1 (racemic) [Example 116] : what is it?
Output: 0.215

Input: Reported IC50 for C=CC(=O)N(C)CCOc1cnccc1-c1[nH]c2cccnc2c1-c1ccc(Cl)c(C)c1 [Example 10] : what is it?
Output: 0.0906

Input: Reported IC50 for C=CC(=O)N1CCC[C@H]1COc1cnccc1-c1[nH]c2c(C)ccnc2c1-c1ccccc1 [Example 135] : what is it?
Output: 0.00183

Input: Reported IC50 for C=CS(=O)(=O)N1CCC(Oc2cnccc2-c2[nH]c3cccnc3c2-c2cccc(Cl)c2)C1 (racemic) [Example 121] : what is it?
Output: 0.018

Input: Reported IC50 for C#CC(=O)N1CCC(Oc2cnccc2-c2[nH]c3cccnc3c2-c2cc(C)ccc2F)C1 (racemic) [Example 125] : what is it?
Output: 0.219

Input: Reported IC50 for C=CS(=O)(=O)N1CCC(Oc2cnccc2-c2[nH]c3cccnc3c2-c2cc(C)ccc2F)C1 (racemic) [Example 126] : what is it?
Output: 0.0398

Input: Reported IC50 for C=CS(=O)(=O)N(C)CCOc1cnccc1-c1[nH]c2cccnc2c1-c1cc(CC)ccc1F [Example 67] : what is it?
Output: 0.0146

Input: Reported IC50 for C=CC(=O)N1CCC[C@H]1COc1cnccc1-c1[nH]c2cccnc2c1-c1cccc(OC)c1 [Example 83] : what is it?
Output: 0.00763

Input: Reported IC50 for C=CC(=O)N1CCOCC1COc1cnccc1-c1[nH]c2cccnc2c1-c1ccccc1 (stereo not shown) [Example 149] : what is it?
Output: 17.7

Input: Reported IC50 for C=CC(=O)N1CCC[C@H]1COc1cnccc1-c1[nH]c2cccnc2c1-c1ccccc1F [Example 89] : what is it?
Output: 0.00231

Input: Reported IC50 for Cn1ccc(C#CC(=O)N2CCC[C@H]2COc2cnccc2-c2[nH]c3cccnc3c2-c2ccccc2)n1 [Example 95] : what is it?
Output: 0.246

Input: Reported IC50 for C=CC(=O)N1CCC[C@H]1COc1cnccc1-c1[nH]c2cccnc2c1-c1ccc2cc[nH]c2c1 [Example 84] : what is it?
Output: 0.154

Input: Reported IC50 for C=CS(=O)(=O)N(CC)CCOc1cnccc1-c1[nH]c2cccnc2c1-c1ccccc1 [Example 33] : what is it?
Output: 0.00192

====

Can you tell me pIC50 for the items I'm about to list?
Biological target: mutEGFR (D770_N771insSVD) (Homo sapiens, UniProt P00533, INS767SVD)
Sequence (P00533 with tags, fused parts or gaps INS767SVD limits assumed): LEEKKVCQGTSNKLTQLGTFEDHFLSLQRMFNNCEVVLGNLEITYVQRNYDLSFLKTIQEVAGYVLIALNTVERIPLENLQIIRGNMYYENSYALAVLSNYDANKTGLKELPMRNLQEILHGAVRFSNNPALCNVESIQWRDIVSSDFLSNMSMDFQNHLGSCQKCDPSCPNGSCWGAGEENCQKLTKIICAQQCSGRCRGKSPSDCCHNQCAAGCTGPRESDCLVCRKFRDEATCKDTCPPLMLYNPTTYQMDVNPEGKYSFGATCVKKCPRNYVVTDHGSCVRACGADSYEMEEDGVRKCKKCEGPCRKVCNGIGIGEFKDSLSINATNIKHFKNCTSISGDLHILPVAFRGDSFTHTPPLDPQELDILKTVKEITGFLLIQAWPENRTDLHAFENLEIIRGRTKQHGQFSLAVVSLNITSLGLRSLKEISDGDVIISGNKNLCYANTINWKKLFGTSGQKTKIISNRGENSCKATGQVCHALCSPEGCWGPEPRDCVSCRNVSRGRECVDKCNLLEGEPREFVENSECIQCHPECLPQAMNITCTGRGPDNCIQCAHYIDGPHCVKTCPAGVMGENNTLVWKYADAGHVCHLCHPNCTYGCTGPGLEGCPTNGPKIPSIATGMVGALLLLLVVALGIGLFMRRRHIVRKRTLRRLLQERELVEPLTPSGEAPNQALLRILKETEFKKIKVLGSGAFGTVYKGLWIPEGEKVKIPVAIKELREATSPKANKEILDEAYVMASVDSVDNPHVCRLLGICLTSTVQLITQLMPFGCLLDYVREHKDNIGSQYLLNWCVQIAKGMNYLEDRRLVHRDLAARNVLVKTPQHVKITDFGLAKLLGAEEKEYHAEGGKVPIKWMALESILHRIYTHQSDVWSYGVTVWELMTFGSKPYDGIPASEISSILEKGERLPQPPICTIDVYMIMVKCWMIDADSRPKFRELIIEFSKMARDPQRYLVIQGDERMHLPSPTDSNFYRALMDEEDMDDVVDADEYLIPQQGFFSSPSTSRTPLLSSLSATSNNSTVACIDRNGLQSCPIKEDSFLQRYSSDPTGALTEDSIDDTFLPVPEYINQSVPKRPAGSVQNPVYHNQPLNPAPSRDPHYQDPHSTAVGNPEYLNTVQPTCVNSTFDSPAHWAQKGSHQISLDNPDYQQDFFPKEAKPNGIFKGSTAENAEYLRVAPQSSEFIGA
Test: Exon20-mutant-EGFR (D770_N771insSVD) TR-FRET kinase assay
Conditions: 2 mM ATP, 15 min preincubation
Excerpt: Inhibitory activity of compounds of the present invention against an Epidermal Growth Factor Receptor (EGFR) with an insertion of the amino acids sequence SVD between D770 and N771 (SEQ ID No. 5) was quantified employing the TR-FRET based kinase activity assay as described in the following paragraphs. […]
Interpret pIC50 as the negative base-10 log of the concentration measured in mol/L.

Input: Reported pIC50 for `C=CS(=O)(=O)N(C)CCOc1cnccc1-c1[nH]c2cccnc2c1-c1cc(C(F)(F)F)ccc1F` : what is it?
Output: 9.30

Input: Reported pIC50 for `C=CC(=O)NCCCOc1cnccc1-c1[nH]c2cccnc2c1-c1ccccc1` : what is it?
Output: 4.95

Input: Reported pIC50 for `C=CC(=O)N(C)CCOc1cnccc1-c1[nH]c2cccnc2c1-c1ccccc1CC` : what is it?
Output: 6.95

Input: Reported pIC50 for C=CS(=O)(=O)N1CC[C@H]1COc1cnccc1-c1[nH]c2cccnc2c1-c1ccccc1 (single isomer, unassigned) : what is it?
Output: 9.22

Input: Reported pIC50 for `C=CC(=O)N(C)CCOc1cnccc1-c1[nH]c2cccnc2c1-c1cc(C)ccc1F` : what is it?
Output: 7.48

Input: Reported pIC50 for C=CS(=O)(=O)N1CCC(Oc2cnccc2-c2[nH]c3cccnc3c2-c2cccc(Cl)c2)C1 (racemic) : what is it?
Output: 8.16

Input: Reported pIC50 for `C=CS(=O)(=O)N(C)CCOc1cnccc1-c1[nH]c2cccnc2c1-c1cc(F)cc(F)c1` : what is it?
Output: 8.44

Input: Reported pIC50 for `C=CC(=O)N(C)CCOc1cnccc1-c1[nH]c2cc(F)cnc2c1-c1ccccc1` : what is it?
Output: 6.83

Input: Reported pIC50 for C=CS(=O)(=O)N1CC[C@H]1COc1cnccc1-c1[nH]c2cccnc2c1-c1cccc(C(F)(F)F)c1 (single isomer, unassigned) : what is it?
Output: 8.29

Input: Reported pIC50 for C=CC(=O)N1CCC(Oc2cnccc2-c2[nH]c3cccnc3c2-c2cccc(C(F)(F)F)c2)C1 (racemic) : what is it?
Output: 6.91

Input: Reported pIC50 for C=CC(=O)N(C)C[C@H](C)Oc1cnccc1-c1[nH]c2cccnc2c1-c1ccccc1 (stereo in doubt) : what is it?
Output: 5.46

Input: Reported pIC50 for C=CS(=O)(=O)N1CCC(Oc2cnccc2-c2[nH]c3cccnc3c2-c2ccccc2)C1 (racemic) : what is it?
Output: 7.77

Input: Reported pIC50 for `C=CC(=O)N(C)CCOc1cnccc1-c1[nH]c2cccnc2c1-c1cccc(OC)c1` : what is it?
Output: 6.93

Input: Reported pIC50 for `C=CC(=O)N1CCC[C@H]1COc1cnccc1-c1[nH]c2cccnc2c1-c1ccccc1Cl` : what is it?
Output: 8.72

Input: Reported pIC50 for `C=CS(=O)(=O)N(C)CCOc1cnccc1-c1[nH]c2cccnc2c1-c1ccc2ccsc2c1` : what is it?
Output: 8.94

Input: Reported pIC50 for `C=CS(=O)(=O)N(C)CCOc1cnccc1-c1[nH]c2cccnc2c1-c1cc(Cl)ccc1Cl` : what is it?
Output: 8.27

Input: Reported pIC50 for `C=CC(=O)N1CCC[C@H]1COc1cnccc1-c1[nH]c2cccnc2c1-c1ccc2cc[nH]c2c1` : what is it?
Output: 7.49

Input: Reported pIC50 for C=CC(=O)N1CCOCC1COc1cnccc1-c1[nH]c2cccnc2c1-c1ccccc1 (stereo not shown) : what is it?
Output: 6.11

Input: Reported pIC50 for `C=CS(=O)(=O)N1CCC[C@H]1COc1cnccc1-c1[nH]c2cccnc2c1-c1ccc(F)c(OC(F)F)c1` : what is it?
Output: 9.68

Input: Reported pIC50 for `C=CC(=O)N(C)CCOc1cnccc1-c1[nH]c2cccnc2c1-c1cc(CC)ccc1F` : what is it?
Output: 7.43

Input: Reported pIC50 for `C=CC(=O)N(C)CCOc1cnccc1-c1[nH]c2cccnc2c1-c1cc(OC)ccc1F` : what is it?
Output: 6.82

Input: Reported pIC50 for `C=CC(=O)N(C)CCCOc1cnccc1-c1[nH]c2cccnc2c1-c1ccccc1` : what is it?
Output: 5.55
